Please find below IC50 measurements for Hepatocyte growth factor receptor (Homo sapiens, UniProt P08581), combined from several publications.
PARAMETER_MEASURED: IC50

smiles_text=O=C(Nc1cn2nc(Cn3nnc4ccc(-c5cccc(F)c5)cc43)ccc2n1)C1CC1 parameter_measured=IC50 value="0.03 to 0.059 µM"
smiles_text=CNc1ccc2nnc(Sc3ccc4ncccc4c3-c3cnn(C)c3)n2n1 parameter_measured=IC50 value="> 10 µM"
smiles_text=Nc1ncc(-c2cnn(CCC(=O)N3CCCCC3)c2)cc1-c1nc2ccccc2s1 parameter_measured=IC50 value="0.1 to 1 µM"
smiles_text=O=C(NC1CC1)c1ccc2nnc(Sc3ccc4nc(NC(=O)C5CC5)cn4n3)n2c1 parameter_measured=IC50 value="0.06 to 0.1 µM"

----------
The following molecules were reported with IC50 values on Hepatocyte growth factor receptor (Homo sapiens, UniProt P08581) in different studies.
PARAMETER_MEASURED: IC50

smiles_text=CN(C)C(=O)COc1ccc(-c2cnc(N)c(-c3nc4ccccc4s3)c2)cc1 value="1 to 20 µM"
smiles_text=CN(C)S(=O)(=O)c1ccc(-c2ccc3nnc(Cc4ccc5ncccc5c4)n3n2)cc1 value="0.1 to 1 µM"
smiles_text=CS(=O)(=O)c1cccc(-c2cnc3[nH]cc(C(=O)c4cccc(O)c4F)c3c2)c1 value="≤ 10 µM"
smiles_text=O=C(c1cnc2c(c1)N(Cc1cc(Cl)ccc1Cl)CCN2)N1CCN(c2cnccn2)CC1 value="> 100 µM"

----------
Below: compounds with IC50 recorded for Hepatocyte growth factor receptor (Homo sapiens, UniProt P08581) in separate published works.
PARAMETER_MEASURED: IC50

compound=Fc1ccc(F)c(CN2CCNc3ncc(-c4cn[nH]c4)cc32)c1Cl value="100 to 1000 nM"
compound="COc1ccc(F)cc1C(C)Oc1cc(-c2cccnc2O)cnc1N (stereo not shown)" value="17400 nM"
compound=COc1cc2nccc(Oc3ccc(NC(=O)c4cn(C)c(=O)n(-c5ccc(F)cc5)c4=O)c(Cl)c3)c2c2c1OCCO2 value="50 to 500 nM"
compound=Cn1ncc2ccc(-c3n[nH]c4c3Cc3sc(-c5ccc(CN6CCC(N7CCOCC7)CC6)cc5)cc3-4)cc21 value="300 to 1000 nM"
compound=O=C(Nc1ccc(Oc2ncnc3cc(OCCCN4CCOCC4)c4c(c23)OCCO4)c(F)c1)c1cccn(-c2ccc(F)cc2)c1=O value="≤ 50 nM"
compound=Cn1ncc2ccc(-c3n[nH]c4c3Cc3sc(-c5cc(F)c(CN6CCOCC6)c(F)c5)cc3-4)cc21 value="> 1000 nM"
compound=Cn1cc(C(=O)Nc2ccc(Oc3ccnc4cc(OCCCN5CCOCC5)c5c(c34)OCCO5)c(F)c2)c(=O)n(-c2ccc(F)cc2)c1=O value="≤ 50 nM"

----------
Reported IC50 against Hepatocyte growth factor receptor (Homo sapiens), gathered from multiple publications, appears below.
PARAMETER_MEASURED: IC50

compound="N#Cc1cccc(-c2ccc3nnc(C(F)c4ccc5ncccc5c4)n3n2)c1 (stereo not shown)" value="100 to 1000 nM"
compound=O=C(c1ccc(-c2cnc3c(c2)N(Cc2cc(Cl)ccc2Cl)CCN3)cc1)N1CCC(N2CCCC2)CC1 value="100 to 1000 nM"
compound=N#Cc1cccc(-c2ccc3nnc(C(F)(F)c4ccc5nc(NC(=O)C6CC6)cn5n4)n3c2)c1 value="< 30 nM"
compound=CN1CCOc2c1cc(C(=O)Nc1ccc(Oc3ccnc(N)c3Cl)c(F)c1)c(=O)n2-c1ccc(F)cc1 value="10 to 100 nM"

----------
The compounds below each have a reported IC50 tested on UniProt:P08581; the values come from various publications.
PARAMETER_MEASURED: IC50

smiles_text=O=C1CNc2ncc(I)cc2N1Cc1ccc(C(F)(F)F)o1 value="> 100 µM"
smiles_text=COc1ccc2c(Oc3c(F)cc(NC(=O)c4cnccc4OC4CC4)cc3F)ccnc2c1 value="≤ 0.1 µM"
smiles_text=Nc1ncc(-c2cnn([C@@H]3CN[C@H](C(=O)O)C3)c2)cc1-c1nc2ccccc2s1 value="≤ 0.1 µM"
smiles_text=CCOC(=O)CN(C)C(=O)c1ccc(-c2ccc(=O)n(Cc3cccc(NC(=O)OCC)c3)n2)cc1 value="0.01 to 1 µM"
smiles_text=O=C(NC1CCCC1)c1cccc(-c2ccc3nnc(Cc4ccc5ncccc5c4)n3n2)c1 value="0.1 to 1 µM"
smiles_text=CCOC(=O)c1cccc(-c2cnc3c(c2)N(Cc2cc(Cl)ccc2C(F)(F)F)CCN3)c1 value="> 100 µM"
smiles_text=CN1CCN(C(=O)c2ccc(-c3cnc4c(c3)N(Cc3cc(F)ccc3F)C(=O)CN4)cc2)CC1 value="10 to 100 µM"
smiles_text=CCOc1cn(-c2ccc(F)cc2C)nc1C(=O)Nc1ccc(Oc2ncnc3cc(OCCCN4CCOCC4)c4c(c23)OCCO4)c(F)c1 value="≤ 0.05 µM"

----------
Compiled notes: published IC50 values involving Hepatocyte growth factor receptor (Homo sapiens, UniProt P08581).
PARAMETER_MEASURED: IC50

molecule=COc1cc(-c2cnc3[nH]cc(-c4ccc(O)cc4)c3c2)ccc1O parameter_measured=IC50 value="1000 to 5000 nM"
molecule=O=c1[nH]c2ccc(Cn3nc(-c4cccc(F)c4)ccc3=O)cc2[nH]1 parameter_measured=IC50 value="10 to 1000 nM"
molecule=CNC(=O)c1ccc(-c2cnc(N)c(-c3nc4ccccc4s3)c2)cc1 parameter_measured=IC50 value="1000 to 20000 nM"
molecule=C=CC(=O)N1CCC[C@@H](n2nc(-c3ccc(Oc4ccccc4)cc3)c3c(N)ncnc32)C1 parameter_measured=IC50 value="35000 nM"
molecule=Cn1cc2cc(C(F)(F)c3nnc4ccc(-c5cnn(C6CC6)c5)cn34)c(F)cc2n1 parameter_measured=IC50 value="159 nM"
molecule=CN1CCN(CCCOC(=O)Nc2cccc(Cn3nc(-c4cc(F)cc(F)c4)ccc3=O)c2)CC1 parameter_measured=IC50 value="10 to 1000 nM"
molecule=COc1cc(N2CCC(N3CCN(C)CC3)CC2)ccc1Nc1ncc(Cl)c(Nc2ccccc2N(C)S(C)(=O)=O)n1 parameter_measured=IC50 value="1 nM"
molecule=CS(=O)(=O)Nc1cccc(-c2cnc3[nH]cc(C(=O)c4cc(NS(C)(=O)=O)ccc4F)c3c2)c1 parameter_measured=IC50 value="≤ 10000 nM"
molecule=CN1CCN(CCCOC(=O)Nc2cccc(Cn3c(=O)sc4ccc(Cl)cc43)c2)CC1 parameter_measured=IC50 value="10 to 1000 nM"
molecule=COc1cc2c(Oc3c(F)cc(NC(=O)c4cnccc4OC4CC4)cc3F)ccnc2cc1OC1CNC1 parameter_measured=IC50 value="≤ 100 nM"
molecule=O=C1CNc2ncc(I)cc2N1Cc1ccccc1OC(F)(F)F parameter_measured=IC50 value="10000 to 100000 nM"
molecule=Cc1cc(-c2ccc(=O)n(Cc3cccc(-c4ncc(OCC5CCN(C)CC5)cn4)c3)c2)sn1 parameter_measured=IC50 value="5 nM"
molecule=Nc1nccc(Oc2ccc(NC(=O)c3c4n(n(-c5ccccc5)c3=O)CCCC4)nc2)c1Cl parameter_measured=IC50 value="14 nM"
molecule=CNCCOc1ccc2c(Oc3c(F)cc(NC(=O)c4cnc(C)cc4OC4CC4)cc3F)ccnc2c1 parameter_measured=IC50 value="≤ 100 nM"
molecule=CCc1ccc2nnc(Cc3ccc4ncc(-c5cnn(C6CNC6)c5)cc4c3)n2n1 parameter_measured=IC50 value="< 100 nM"
molecule=Cc1ccc(-c2cc3c(s2)Cc2c(-c4ccc5cnn(C)c5c4)n[nH]c2-3)cn1 parameter_measured=IC50 value="> 1000 nM"
molecule=CCOc1cn(-c2ccc(F)cc2C)nc1C(=O)Nc1ccc(Oc2ncnc3cc(OC)c4c(c23)OCCO4)c(F)c1 parameter_measured=IC50 value="50 to 500 nM"
molecule=CS(=O)(=O)Nc1ccc(F)c(C(=O)c2c[nH]c3ncc(-c4cccc(C(N)=O)c4)cc23)c1F parameter_measured=IC50 value="≤ 10000 nM"
molecule="CN1CCN(c2ccc(-c3cnc4c(c3)C(Oc3c(F)ccc(F)c3Cl)CCN4)cn2)CC1 (centres unmarked)" parameter_measured=IC50 value="10000 to 100000 nM"
molecule=CN(C)C(=O)c1ccc(-c2cnc(N)c(-c3nc4ccccc4s3)c2)cc1 parameter_measured=IC50 value="1000 to 20000 nM"
molecule=O=S(=O)(c1ccccc1)N1CCNc2ncc(I)cc21 parameter_measured=IC50 value="10000 to 100000 nM"
molecule=Nc1ncc2[nH]ccc2c1-c1cc2ccccc2o1 parameter_measured=IC50 value="> 20000 nM"
molecule=CNC(=O)c1ccc(-c2ccc3nnc(Cc4ccc5ncsc5c4)n3n2)cc1F parameter_measured=IC50 value="< 100 nM"
molecule=CC(C)n1cc(C(=O)Nc2ccc(Oc3ccnc4cc(OCCCC#N)c5c(c34)OCCO5)c(F)c2)c(=O)n(-c2ccc(F)cc2)c1=O parameter_measured=IC50 value="50 to 500 nM"
molecule=CN1CCC(COc2cnc(-c3cccc(Cn4cc(-c5cc(C#N)ccc5F)ccc4=O)c3)nc2)CC1 parameter_measured=IC50 value="6.16 nM"
molecule=O=C(Nc1cn2nc(Sc3nnc4ccc(-c5csc(N6CCOCC6)n5)cn34)ccc2n1)C1CC1 parameter_measured=IC50 value="30 to 59 nM"
molecule=Cn1cc2cc(C(F)(F)c3nnc4ccc(-c5ccc(C(=O)N6CCCC6)c(F)c5)nn34)c(F)cc2n1 parameter_measured=IC50 value="125 nM"
molecule=COc1cn(-c2ccc(F)cc2C)nc1C(=O)Nc1ccc(Oc2ncnc3cc(OC)c4c(c23)OCCO4)c(F)c1 parameter_measured=IC50 value="50 to 500 nM"
molecule=CN(C)c1nc2cc(C(=O)Nc3ccc(Oc4ccnc5[nH]ccc45)c(F)c3)c(=O)n(-c3ccc(F)cc3)c2s1 parameter_measured=IC50 value="10 to 100 nM"
molecule="CC(c1ccc2nc(NC(=O)C3CC3)cn2n1)c1nnc2ccc(-c3ccc(C(N)=O)cc3)cn12 (centres unmarked)" parameter_measured=IC50 value="< 30 nM"
molecule=Cn1cc(C(=O)Nc2ccc(Oc3ccnc4cc(OCCCN5CCCCC5)c5c(c34)OCCO5)c(F)c2)c(=O)n(-c2ccc(F)cc2)c1=O parameter_measured=IC50 value="≤ 50 nM"
molecule=CNS(=O)(=O)c1ccc(-c2ccc3nnc(C(F)(F)c4cc5cn(C)nc5cc4F)n3n2)cc1F parameter_measured=IC50 value="136 nM"
